measurement-target: BTK protein (Homo sapiens)
Construct: endogenous in cells; host or cells: TMD-8 cells
experiment: Measurement of BTK protein degradation ability in TMD-8 cells (Western blotting)
Type: cell-based
experimental-parameters: compound 10 nM, harvested after 24 hours
Please provide measured BTK degradation (%) 10 nM for the entries that follow.
Provide the measurement as a number trailed by its unit.

BTK degradation (%) 10 nM of Cc1cc(-c2ccnc(Nc3cnn(C4CCN(CC5CN(c6ccc7c(c6)C(=O)N(C6CCC(=O)NC6=O)C7=O)C5)CC4)c3)n2)ccc1CNC(=O)N1CC(OC(C)C)C1 (stereo not drawn) , assay on BTK protein (Homo sapiens), is 97%

BTK degradation (%) 10 nM of Cc1cc(-c2ccnc(Nc3ccc(CN4CCN(CC5CCN(c6ccc(N7CCC(=O)NC7=O)cc6)CC5)CC4)cc3)n2)ccc1CNC(=O)N1CC(OC(C)C)C1 , assay on BTK protein (Homo sapiens), is 88.0%

BTK degradation (%) 10 nM of Cc1cc(-c2ccnc(Nc3ccc(N4CCN(CC5CCN(c6ccc(NC7CCC(=O)NC7=O)cn6)CC5)CC4)cc3)n2)ccc1CNC(=O)c1cnn(C(C)(C)C)c1 (stereo not drawn) , assay on BTK protein (Homo sapiens), is 96.5%

BTK degradation (%) 10 nM of Cc1cc(-c2ccnc(Nc3ccc(N4CCN(CC5CCN(c6cccc(N7CCC(=O)NC7=O)c6)CC5)CC4)nc3)n2)ccc1CNC(=O)c1cnn(C(C)(C)C)c1 , assay on BTK protein (Homo sapiens), is 96.5%

BTK degradation (%) 10 nM of Cc1cc(-c2ccnc(Nc3ccc(N4CCC(CN5CCN(c6cccc(NC7CCC(=O)NC7=O)c6)CC5)CC4)cc3)n2)ccc1CNC(=O)N1CC(OC(C)C)C1 (stereo not drawn) , assay on BTK protein (Homo sapiens), is 91.5%

BTK degradation (%) 10 nM of Cc1cc(-c2ccnc(Nc3ccc(C4CCN(CC5CCN(c6ccc(OC7CCC(=O)NC7=O)cn6)CC5)CC4)cc3)n2)ccc1CNC(=O)N1CC(OC(C)C)C1 (stereo not drawn) , assay on BTK protein (Homo sapiens), is 86.7%

---

Please provide measured BTK degradation (%) 10 nM for the entries that follow.
measurement-target: BTK protein (Homo sapiens, UniProt Q06187)
Construct: endogenous in cells; host or cells: TMD-8 cells
Sequence (Q06187 whole entry): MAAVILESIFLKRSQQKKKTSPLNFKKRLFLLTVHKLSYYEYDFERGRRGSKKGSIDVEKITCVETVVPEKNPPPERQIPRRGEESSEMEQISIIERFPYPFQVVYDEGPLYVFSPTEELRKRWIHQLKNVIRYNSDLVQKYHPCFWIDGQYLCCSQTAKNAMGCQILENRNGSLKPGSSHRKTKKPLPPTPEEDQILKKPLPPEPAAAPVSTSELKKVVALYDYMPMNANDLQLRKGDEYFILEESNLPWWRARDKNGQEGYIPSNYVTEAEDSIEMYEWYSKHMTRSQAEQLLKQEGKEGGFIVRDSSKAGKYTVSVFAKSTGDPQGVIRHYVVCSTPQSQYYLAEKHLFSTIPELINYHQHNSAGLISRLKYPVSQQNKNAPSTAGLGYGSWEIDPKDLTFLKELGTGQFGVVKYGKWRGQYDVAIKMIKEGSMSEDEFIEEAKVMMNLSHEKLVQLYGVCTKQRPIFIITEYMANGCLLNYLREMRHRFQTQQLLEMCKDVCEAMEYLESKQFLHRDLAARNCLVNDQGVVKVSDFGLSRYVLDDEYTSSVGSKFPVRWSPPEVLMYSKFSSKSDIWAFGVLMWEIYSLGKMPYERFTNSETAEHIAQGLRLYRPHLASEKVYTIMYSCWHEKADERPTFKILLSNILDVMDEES
experiment: Measurement of BTK protein degradation ability in TMD-8 cells (Western blotting)
Type: cell-based
experimental-parameters: compound 10 nM, harvested after 24 hours
Field: numeric (%). Do not append units.

GET /value?item= Cc1cc(-c2ccnc(Nc3ccc(N4CCN(CC5CCN(c6ccc(NC7CCC(=O)NC7=O)cc6F)CC5)CC4)cc3)n2)ccc1CNC(=O)c1cn(C(C)(C)C)nn1 (stereo not drawn) [Example 72] &field=BTK degradation (%) 10 nM returns 95.5

GET /value?item= Cc1cc(-c2ccnc(Nc3ccc(C4CCN(CC5CN(C(=O)c6cccc(NC7CCC(=O)NC7=O)c6)C5)CC4)cc3)n2)ccc1CNC(=O)N1CC(OC(C)C)C1 (stereo not drawn) [Example 100] &field=BTK degradation (%) 10 nM returns 91.0

GET /value?item= Cc1cc(-c2ccnc(Nc3ccc(N4CCC(CN5CCC(c6ccc(OC7CCC(=O)NC7=O)cc6)CC5)CC4)cc3)n2)ccc1CNC(=O)N1CC(OC(C)C)C1 (stereo not drawn) [Example 119] &field=BTK degradation (%) 10 nM returns 91.0

---

measurement-target: BTK protein (Homo sapiens, UniProt Q06187)
Construct: endogenous in cells; host or cells: TMD-8 cells
experiment: Measurement of BTK protein degradation ability in TMD-8 cells (Western blotting)
Type: cell-based
experimental-parameters: compound 1 nM, harvested after 24 hours
Please provide measured BTK degradation (%) 1 nM for the entries that follow.
Field: numeric (%). Do not append units.

GET /value?item= Cc1cc(-c2ccnc(Nc3ccc(N4CCN(CC5CCN(C(=O)c6cccc(NC7CCC(=O)NC7=O)c6)CC5)CC4)cc3)n2)ccc1CNC(=O)N1CC(OC(C)C)C1 (centres unmarked) &field=BTK degradation (%) 1 nM returns 36.5

GET /value?item= Cc1cc(-c2ccnc(Nc3ccc(N4CCC(CN5CCC(c6ccc(NC7CCC(=O)NC7=O)cc6)CC5)CC4)cc3)n2)ccc1CNC(=O)c1cnn(C(C)(C)C)c1 (centres unmarked) &field=BTK degradation (%) 1 nM returns 59.0

GET /value?item= Cc1cc(-c2ccnc(Nc3cnn(C4CCN(CC5CN(c6ccc7c(c6)C(=O)N(C6CCC(=O)NC6=O)C7=O)C5)CC4)c3)n2)ccc1CNC(=O)N1CC(OC(C)C)C1 (centres unmarked) &field=BTK degradation (%) 1 nM returns 75

GET /value?item= Cc1cc(-c2ccnc(Nc3ccc(N4CCN(CC5CN(C(=O)c6cccc(NC7CCC(=O)NC7=O)c6)C5)CC4)cc3)n2)ccc1CNC(=O)N1CC(OC(C)C)C1 (centres unmarked) &field=BTK degradation (%) 1 nM returns 35.5

GET /value?item= Cc1cc(-c2ccnc(Nc3ccc(N4CCC(CN5CCC(c6ccc(OC7CCC(=O)NC7=O)cc6)CC5)CC4)nc3)n2)ccc1CNC(=O)N1CC(OC(C)C)C1 (centres unmarked) &field=BTK degradation (%) 1 nM returns 28.0

GET /value?item= Cc1cc(-c2ccnc(Nc3cnn(C4CCN(CC5CN(c6ccc7c(c6)C(=O)N(C6CCC(=O)NC6=O)C7=O)C5)CC4)c3)n2)ccc1CNC(=O)c1cn(C(C)(C)C)nn1 (centres unmarked) &field=BTK degradation (%) 1 nM returns 69.5

GET /value?item= Cc1cc(-c2ccnc(Nc3ccc(CN4CCN(CC5CCN(c6cccc(NC7CCC(=O)NC7=O)c6)CC5)CC4)cc3)n2)ccc1CNC(=O)N1CC(OC(C)C)C1 (centres unmarked) &field=BTK degradation (%) 1 nM returns 43.0

GET /value?item= Cc1cc(-c2ccnc(Nc3ccc(C4CCN(C5CCN(C(=O)c6cccc(NC7CCC(=O)NC7=O)c6)CC5)CC4)cc3)n2)ccc1CNC(=O)N1CC(OC(C)C)C1 (centres unmarked) &field=BTK degradation (%) 1 nM returns −9.0

---

measurement-target: BTK protein (Homo sapiens, UniProt Q06187)
Construct: endogenous in cells; host or cells: TMD-8 cells
experiment: Measurement of BTK protein degradation ability in TMD-8 cells (Western blotting)
Type: cell-based
experimental-parameters: compound 10 nM, harvested after 24 hours
The label is T for BTK degradation (%) 10 nM below 90% and F for BTK degradation (%) 10 nM equal to or exceeding 90%.

# input Is it true that BTK degradation (%) 10 nM reported for Cc1cc(-c2ccnc(Nc3cnn(C4CCN(CC5CCN(c6ccc7c(c6)C(=O)N(C6CCC(=O)NC6=O)C7=O)CC5)CC4)c3)n2)ccc1CNC(=O)c1cnn(C(C)C)c1 (stereo not shown) is less than 90%?
# output F

# input Is it true that BTK degradation (%) 10 nM reported for Cc1cc(-c2ccnc(Nc3ccc(C4CCN(CC5CCN(c6ccc(OC7CCC(=O)NC7=O)cc6)CC5)CC4)cc3)n2)ccc1CNC(=O)c1cnn(C(C)C)c1 (stereo not shown) is less than 90%?
# output T

# input Is it true that BTK degradation (%) 10 nM reported for Cc1cc(-c2ccnc(Nc3ccc(C4CN(CC5CCN(C(=O)c6cccc(NC7CCC(=O)NC7=O)c6)CC5)C4)cc3)n2)ccc1CNC(=O)N1CC(OC(C)C)C1 (stereo not shown) is less than 90%?
# output F

# input Is it true that BTK degradation (%) 10 nM reported for Cc1cc(-c2ccnc(Nc3ccc(N4CCN(CC5CN(C(=O)c6cccc(NC7CCC(=O)NC7=O)c6)C5)CC4)cc3)n2)ccc1CNC(=O)c1cnn(C(C)(C)C)c1 (stereo not shown) is less than 90%?
# output F

# input Is it true that BTK degradation (%) 10 nM reported for Cc1cc(-c2ccnc(Nc3ccc(N4CCC(CN5CCC(c6cccc(NC7CCC(=O)NC7=O)c6)CC5)CC4)cc3)n2)ccc1CNC(=O)N1CC(OC(C)C)C1 (stereo not shown) is less than 90%?
# output T

# input Is it true that BTK degradation (%) 10 nM reported for Cc1cc(-c2ccnc(Nc3ccc(C4CCN(CC5CCN(c6ccc(OC7CCC(=O)NC7=O)cc6)CC5)CC4)cc3)n2)ccc1CNC(=O)N1CC(OC(C)C)C1 (stereo not shown) is less than 90%?
# output F

# input Is it true that BTK degradation (%) 10 nM reported for Cc1cc(-c2ccnc(Nc3ccc(N4CCC(CN5CCC(c6ccc(NC7CCC(=O)NC7=O)cn6)CC5)CC4)cc3)n2)ccc1CNC(=O)N1CC(OC(C)C)C1 (stereo not shown) is less than 90%?
# output F

# input Is it true that BTK degradation (%) 10 nM reported for Cc1cc(-c2ccnc(Nc3ccc(N4CCC(CN5CCN(c6ccc(OC7CCC(=O)NC7=O)cn6)CC5)CC4)cc3)n2)ccc1CNC(=O)N1CC(OC(C)C)C1 (stereo not shown) is less than 90%?
# output T

# input Is it true that BTK degradation (%) 10 nM reported for CC(C)(C)n1cc(C(=O)NCc2ccc(-c3ccnc(Nc4ccc(N5CCC(CN6CCC(c7ccc(NC8CCC(=O)NC8=O)cc7)CC6)CC5)cc4)n3)cc2CO)nn1 (stereo not shown) is less than 90%?
# output F

# input Is it true that BTK degradation (%) 10 nM reported for Cc1cc(-c2ccnc(Nc3ccc(N4CCN(CC5CCN(c6cc7c(cc6F)C(=O)N(C6CCC(=O)NC6=O)C7=O)CC5)CC4)cc3)n2)ccc1CNC(=O)N1CC(OC(C)C)C1 (stereo not shown) is less than 90%?
# output T

# input Is it true that BTK degradation (%) 10 nM reported for Cc1c(NC(=O)N2CC(OC(C)C)C2)cc(F)cc1-c1ccnc(Nc2ccc(N3CCN(CC4CN(c5ccc6c(n5)CN(C5CCC(=O)NC5=O)C6=O)C4)CC3)cc2)n1 (stereo not shown) is less than 90%?
# output T

# input Is it true that BTK degradation (%) 10 nM reported for Cc1cc(-c2ccnc(Nc3ccc(N4CCN(CC5CCN(c6cccc(NC7CCC(=O)NC7=O)c6)CC5)CC4)cc3)n2)ccc1CNC(=O)c1cnn(C(C)(C)C)c1 (stereo not shown) is less than 90%?
# output F

# input Is it true that BTK degradation (%) 10 nM reported for Cc1cc(-c2ccnc(Nc3ccc(N4CCN(CC5CCN(c6ccc(NC7CCC(=O)NC7=O)cn6)CC5)CC4)cc3)n2)ccc1CNC(=O)c1cn(C(C)(C)C)nn1 (stereo not shown) is less than 90%?
# output F

# input Is it true that BTK degradation (%) 10 nM reported for Cc1cc(-c2ccnc(Nc3ccc(N4CCC(CN5CCC(c6ccc(NC7CCC(=O)NC7=O)cc6)CC5)CC4)cc3)n2)ccc1CNC(=O)c1cnn(C(C)(C)C)c1 (stereo not shown) is less than 90%?
# output F
